# System: SF-295 CNS
# protocol-details: NCI tumour cell line growth inhibition, 48 h; in the data active means GI50 below about 0.43 µM; inactive means the rest
Outcomes: active, inactive

INSERT INTO results (sample_smiles, tested_system, answer_label) VALUES
  ('COc1ccc(C#Cc2ccccc2C#CCCCCO)cc1', 'SF-295 CNS', 'inactive'),
  ('COC1=CC(c2ccc[nH]2)=N/C1=C\c1[nH]c(C)c(C(=O)OCc2ccccc2)c1C', 'SF-295 CNS', 'active'),
  ('C=C1C(=O)O[C@H]2[C@H]1CC/C(CNC(=O)/C=C/c1ccc(Br)cc1)=C\CC[C@@]1(C)O[C@@H]21', 'SF-295 CNS', 'inactive'),
  ('COc1cc(-c2nn3c(/C=C4/C(=O)Nc5ccccc54)c(-c4ccc(C)cc4)nc3s2)cc(OC)c1OC', 'SF-295 CNS', 'inactive');

---

# System: BT-549 breast
# protocol-details: NCI tumour cell line growth inhibition, 48 h
TGI values by entry
measurement-type: TGI (µM)

INSERT INTO measurements (compound, tested_system, result_modifier, numeric_value) VALUES
  ('CC1=NN(C(=O)CSc2nnc(SCC(=O)N3N=C(C)CC3(O)c3ccccc3)s2)C(O)(c2ccccc2)C1 (centres undefined)', 'BT-549 breast', '=', 47),
  ('CCOc1cc2c(cc1O)/C(=N\N)C[C@@H]1[C@@H]2CC[C@]2(C)[C@@H](O)CC[C@@H]12', 'BT-549 breast', '=', 29.8),
  ('C[n+]1c(/C=C\C=C\N2CCCCC2)sc2ccccc21', 'BT-549 breast', '=', 3.5),
  ('Cc1ccc(C)n1-c1ccccc1C1SCCCS1', 'BT-549 breast', '>', 100);

---

# Tested on: SK-OV-3 ovarian
# protocol-details: NCI tumour cell line growth inhibition, 48 h
GI50 values by entry
measurement-type: GI50

INSERT INTO assay_data (compound, result) VALUES
  ('O=C(Nc1ccc(Cl)cc1Cl)c1ccc(NC2=C(Cl)C(=O)N(Cc3ccccc3)C2=O)cc1', '30.3 µM'),
  ('CC(C)(C)OC(=O)NCCNC1=CC(=O)c2nc3ccccc3c3ccnc1c23', '43.3 µM'),
  ('COc1cccc([C@H]2CC(=O)c3cc4c(cc3N2)OCO4)c1', '0.556 µM'),
  ('CCC[CH2][Sn]([CH2]CCC)([O]C(=O)c1c(F)cccc1F)[O]C(=O)c1c(F)cccc1F', '1.82 µM'),
  ('O=P([O-])(O)OP(=O)([O-])O.[NH-][C@H]1CCCC[C@@H]1[NH-].[OH-].[OH-].[Pt+4]', '19.9 µM'),
  ('CCCN(CCC)CCCNCc1cc(I)cc(C)c1O', '16.3 µM'),
  ('CC/C(Cc1ccccc1)=C(\c1ccc(OCCN2CCCCCC2)cc1)c1ccc(OC(=O)NCc2ccccc2)cc1', '7.59 µM'),
  ('CC1=C([Se]CC(OC(=O)[C@@H](CSSC(C)(C)C)NC(=O)OC(C)(C)C)C(=O)NC(C)(C)C)C(=O)c2ccccc2C1=O (some centres undefined)', '1.36 µM'),
  ('O=C(c1ccccc1)c1c(NCC(O)CN2CCCC2)n(Cc2ccccc2)c(=O)n(Cc2ccccc2)c1=O (centres undefined)', '34 µM');

---

# Tested on: SNB-75 CNS
# protocol-details: NCI tumour cell line growth inhibition, 48 h; in the data active = GI50 below about 0.43 µM; inactive = the rest
Outcomes: t (active), f (inactive)

INSERT INTO results (compound, answer_label) VALUES
  ('O=P([O-])(O)OP(=O)([O-])O.[NH-][C@H]1CCCC[C@@H]1[NH-].[OH-].[OH-].[Pt+4]', 'f'),
  ('Nc1ccn(C2OC(CO)C(O)C2F)c(=O)n1 (stereo not given)', 'f'),
  ('Cc1ccc(C(=O)N(CCCN)[C@@H](c2nc3cc(Cl)ccc3c(=O)n2Cc2ccccc2)C(C)C)cc1', 't'),
  ('O=[N+]([O-])c1ccc(Nc2ccccc2-c2ccccc2)c2nonc12', 'f'),
  ('CN1CCN(c2ccc(C(=O)Nc3n[nH]c4ccc(Cc5cc(F)cc(F)c5)cc34)c(NC3CCOCC3)c2)CC1', 'f'),
  ('Cc1cc(C)nc(NC(N)=NCCc2ccccc2)n1', 'f'),
  ('COC(=O)[C@@H](NC(=O)NC(=O)NC(=O)CI)C(C)C', 'f'),
  ('C=C1C(=O)O[C@H]2[C@H]1CC/C(CNC(=O)/C=C/c1ccc(Br)cc1)=C\CC[C@@]1(C)O[C@@H]21', 'f'),
  ('CC(=O)N1CCN(C2=Nc3ccccc3CO2)C1=S', 'f'),
  ('FC(F)(F)c1ccc(-c2nc(-c3nc4cc(Cl)c(Cl)cc4[nH]3)c3ccccn23)cc1', 'f');

---

# Test system: HL-60(TB) leukemia
# protocol-details: NCI tumour cell line growth inhibition, 48 h
GI50 values by entry
measurement-type: GI50

INSERT INTO measurements (sample_smiles, result) VALUES
  ('Cc1ccccc1NC(=S)Nc1ccccn1', '> 100 µM'),
  ('C=C(CNC(=O)Nc1ccc(-c2ccccc2)cc1)c1ccc(C(=O)Nc2ccccc2N)cc1', '89.7 µM'),
  ('C=CC(=O)Nc1ccc(Nc2nccc(-c3ccc(N4CCCC4)c(C#N)c3)n2)cc1', '4.88 µM'),
  ('Cc1c2cc[nH]c(=O)c2c(C)c2c1[nH]c1cc(OCCN3CCN(C)CC3)ccc12', '1.44 µM');

---

# Tested on: HOP-62 NSCLC
# protocol-details: NCI tumour cell line growth inhibition, 48 h
measurement-type: TGI

INSERT INTO results (sample_smiles, result) VALUES
  ('O=C(CSc1nnc(-c2ccc(N=Cc3ccc(Cl)cc3)cc2)o1)Nc1ccccc1Cl', '> 100 µM'),
  ('O=C1Oc2ccccc2C(=O)/C1=C/N1C(=O)N/C(=C\c2ccccc2O)C1=O', '> 100 µM'),
  ('O=C(O)CCCl', '> 5000 µM'),
  ('O=C(Nc1c(O)[nH]c(=S)[nH]c1=O)c1ccccn1', '> 100 µM'),
  ('Clc1ccc(-c2ccc(-c3nnc(CCc4nnc(-c5ccc(-c6ccc(Cl)cc6)o5)o4)o3)o2)cc1', '> 100 µM'),
  ('O=C1N[C@H]2c3c(Cl)sc(Cl)c3/C(=N/O)[C@H]2O1', '> 100 µM');

---

# Tested on: HL-60(TB) leukemia
# protocol-details: NCI tumour cell line growth inhibition, 48 h
TGI values by entry
measurement-type: TGI (µM)

INSERT INTO measurements (compound, result_modifier, numeric_value) VALUES
  ('CC[C@@]1(O)C(=O)OCc2c1cc1n(c2=O)Cc2c-1nc1ccccc1c2/C=N\NC(=O)C(N)CC(C)C (stereo not given in full)', '>', 100),
  ('CC1=C(C(=O)NCc2ccccc2)C(c2ccc(C3C(C(=O)NCc4ccccc4)=C(C)NC(C)=C3C(=O)NCc3ccccc3)cc2)C(C(=O)NCc2ccccc2)=C(C)N1', '=', 44.7),
  ('CCCCCCCCCCCOC(=S)NC(C)C', '=', 39.1),
  ('O=C(CC1=Nc2nnc(-c3nnc4n3C(=O)C(CC(=O)c3cccnc3)=N4)n2C1=O)c1cccnc1', '>', 100),
  ('FC(F)(F)c1ccc(-c2nc(-c3nc4cc(Cl)c(Cl)cc4[nH]3)c3ccccn23)cc1', '>', 100),
  ('CCOC(=O)c1cccc(NC(=O)CCl)c1', '=', 13.2),
  ('N#Cc1cc(C#N)c(Cl)nc1N', '>', 10),
  ('Cc1c2cc[nH]c(C(F)(F)F)c2cc2c1nc1ccccc12', '>', 125),
  ('O=C1C(N2CCCC2)=CC(=O)c2c(O)c(N3CCCC3)c(Cl)c(O)c21', '>', 10),
  ('CC/C(Cc1ccccc1)=C(\c1ccc(OCCN2CCCCCC2)cc1)c1ccc(OC(=O)NCc2ccccc2)cc1', '=', 3.44);

---

# Tested on: OVCAR-3 ovarian
# protocol-details: NCI tumour cell line growth inhibition, 48 h
TGI values by entry
measurement-type: TGI

INSERT INTO results (compound, tested_system, result) VALUES
  ('O=C(Nc1cccc2ccccc12)Oc1ccccc1C1CCCCC1', 'OVCAR-3 ovarian', '39.5 µM'),
  ('COc1c2c(c3c(c1C1OC(C)[C@@H](C)O1)CC(C)(C)O3)C(=O)c1ccccc1C2=O (stereo not given in full)', 'OVCAR-3 ovarian', '> 100 µM'),
  ('C=C(Cn1c(=O)c2ccccc2c2ccccc21)c1ccc(C(=O)Nc2ccccc2N)cc1', 'OVCAR-3 ovarian', '> 100 µM'),
  ('O=c1c2ccccc2oc2nc3n(c(=O)c12)CCCS3', 'OVCAR-3 ovarian', '> 100 µM'),
  ('COc1cc(/C=C2/SC(c3ccccc3)N(c3ccc(NC(C)=O)cc3)C2=O)cc(OC)c1OC (stereo not given)', 'OVCAR-3 ovarian', '> 100 µM'),
  ('CNC(=O)c1ccccc1-[s+]1c2ccccc2c(=O)n1C (stereo not given)', 'OVCAR-3 ovarian', '> 100 µM'),
  ('CC12CC3C(CC1SCC(=O)O2)C3(C)C (stereo not given)', 'OVCAR-3 ovarian', '> 100 µM'),
  ('COc1ccc(C#Cc2ccccc2C#CCCCCO)cc1', 'OVCAR-3 ovarian', '40.2 µM'),
  ('CCCCNC1CCC2(SCCS2)c2[nH]c3ccccc3c21 (stereo not given)', 'OVCAR-3 ovarian', '46.7 µM'),
  ('O=C1C(N2CCCC2)=CC(=O)c2c(O)c(N3CCCC3)c(Cl)c(O)c21', 'OVCAR-3 ovarian', '> 10 µM');

Origin of values: PubChem BioAssay (NCI)
